- Test system: NCI-H69 cell line
- procedure details: Cell viability assay for NCI-H69 cell line (EZ-Cytox)
- Format: cell-based
- setup conditions: Homo sapiens, NCI-H69, 120 h; H69 cells, 5 days, 3000 nM to 0.46 nM
pIC50: −log10 of the molar value.
attribute measured: pIC50

Entry under review: COc1cc(C(=O)N[C@H]2CC[C@H](CN(C)C3CCN(c4ccc(C5CCC(=O)NC5=O)nc4)CC3)CC2)ccc1Nc1ncc2c(n1)N(C1CCCC1)CC(F)(F)C(=O)N2C (some centres unmarked) [Compound 9] . Reported pIC50?
> 7.52

Item under review: COc1cc(N2CCN(CCC3CCN(NC(=O)c4ccc(Nc5ncc6c(n5)N(C5CCCC5)CC(F)(F)C(=O)N6C)c(OC)c4F)CC3)CC2)c(F)cc1NC1CCC(=O)NC1=O (centres unmarked) [Compound 44] . Reported pIC50?
> 7.00

Field request: pIC50 | item: COc1cc(C(=O)NC2CC3(CCN(CC4CCN(c5cc(F)c(NC6CCC(=O)NC6=O)cc5F)CC4)CC3)C2)c(F)cc1Nc1ncc2c(n1)N(C(C)C)CC(F)(F)C(=O)N2C (centres unmarked) [Compound 69]
> 7.30

Can you share its pIC50? I mean this molecule: COc1cc(C(=O)NN2CCC(CCN3CCN(c4cnc(C5CCC(=O)NC5=O)cc4F)CC3)CC2)ccc1Nc1ncc2c(n1)N(C(C)C)CC(F)(F)C(=O)N2C (centres unmarked) [Compound 21]
> 7.52

Reported pIC50 for COc1cc(C(=O)NC2CC3(CCN(CC4CCN(c5cc(OC)c(NC6CCC(=O)NC6=O)cc5F)CC4)CC3)C2)ncc1Nc1ncc2c(n1)N(C(C)C)CC(F)(F)C(=O)N2C (centres unmarked) [Compound 53] : what is it?
> 7.30

Using the record for COc1cc(C(=O)NC2CCN(CCN3CCN(c4cc(OC)c(NC5CCC(=O)NC5=O)cc4F)CC3)CC2)c(F)cc1Nc1ncc2c(n1)N(C1CCCC1)CC(F)(F)C(=O)N2C (centres unmarked) [Compound 49] , report its pIC50.
> 7.30

Which pIC50 reading was recorded for the molecule COc1cc(C(=O)NC2CCN(CCC3CCN(c4ccc(NC5CCC(=O)NC5=O)c(F)c4)CC3)CC2)c(F)cc1Nc1ncc2c(n1)N(C(C)C)CC(F)(F)C(=O)N2C (centres unmarked) [Compound 37] ?
> 7.00

Can you look up the measured pIC50 of CCN1CC(F)(F)C(=O)N(C)c2cnc(Nc3ccc(C(=O)NC4CCN(CCC5CCN(c6cc(F)c(NC7CCC(=O)NC7=O)cc6F)CC5)CC4)cc3OC)nc21 (centres unmarked) [Compound 64] for me?
> 7.52

Recorded pIC50 of COc1cc(C(=O)NC2CCN(CCC3CCN(c4ccc(NC5CCC(=O)NC5=O)cc4F)CC3)CC2)ccc1Nc1ncc2c(n1)N(C1CCCC1)CC(F)(F)C(=O)N2C (centres unmarked) [Compound 30] , please.
> 7.52

Requested read-out: pIC50. Entry: COc1cc(C(=O)N[C@H]2CC[C@H](N(C)CC3CCN(c4cccc(N5CCC(=O)NC5=O)c4)CC3)CC2)ccc1Nc1ncc2c(n1)N(C1CCCC1)CC(F)(F)C(=O)N2C [Compound 8]
> 7.52

What does the data say about its pIC50? Entry: COc1cc(C(=O)NC2CC3(CCN(CC4CCN(c5cc(OC)c(NC6CCC(=O)NC6=O)cc5F)CC4)CC3)C2)ccc1Nc1ncc2c(n1)N(C1CCCC1)CC(F)(F)C(=O)N2C (centres unmarked) [Compound 51]
> 7.52
